- test_description: Percentage unbound in human plasma
- Type: ADME, cell-free
Consider the following compounds; for each one, report its fraction unbound.

# lookup: fraction unbound of COCCN(C)S(=O)(=O)c1ccc(C)c(C#Cc2cc(Cl)ccc2OCC(=O)O)c1 0.006

Continue with CN(C)S(=O)(=O)c1cncc(C#Cc2cc(Cl)ccc2OCC(=O)O)c1 0.033

Continue with O=C(O)COc1ccc(Cl)cc1C#Cc1cccnc1 0.029

Continue with O=C(O)COc1ccc(Cl)cc1C#Cc1cccc(S(=O)(=O)CCO)c1 0.047

Continue with Cc1ccc(S(=O)(=O)NC(C)C)cc1C#Cc1cc(Cl)ccc1OCC(=O)O 0.004

Continue with CS(=O)(=O)c1ccc(F)c(C#Cc2cc(Cl)ccc2OCC(=O)O)c1 0.013

Continue with CCCS(=O)(=O)c1ccc(F)c(C#Cc2cc(Cl)ccc2OCC(=O)O)c1 0.01

Continue with CCCS(=O)(=O)c1ccc(Cl)c(C#Cc2cc(Cl)ccc2OCC(=O)O)c1 0.003

Continue with Cc1ccc(S(C)(=O)=O)cc1C#Cc1cc(Cl)ccc1OCC(=O)O 0.017

Continue with O=C(O)COc1ccc(Cl)cc1C#Cc1cccc(Cl)c1 < 0.003

Continue with CCNS(=O)(=O)c1ccc(C)c(C#Cc2cc(Cl)ccc2OCC(=O)O)c1 0.005

Continue with CCCS(=O)(=O)c1cccc(C#Cc2cc(Cl)ccc2OCC(=O)O)c1 0.008

Continue with CCCc1ccc(S(C)(=O)=O)cc1C#Cc1cc(Cl)ccc1OCC(=O)O 0.002

Continue with Cc1ccc(S(=O)(=O)CCCO)cc1C#Cc1cc(Cl)ccc1OCC(=O)O 0.015

Continue with CC(C)c1ccc(S(C)(=O)=O)cc1C#Cc1cc(Cl)ccc1OCC(=O)O 0.003

Continue with CCCS(=O)(=O)c1ccc(C)c(C#Cc2cc(Cl)ccc2OCC(=O)O)c1 0.004

Continue with O=C(O)COc1ccc(Cl)cc1C#Cc1ccc2c(c1)S(=O)(=O)c1ccccc1-2 < 0.001

Continue with CN(C)S(=O)(=O)c1ccc(F)c(C#Cc2cc(Cl)ccc2OCC(=O)O)c1 0.009

Continue with Cc1ccc(S(=O)(=O)N(C)C(C)C)cc1C#Cc1cc(Cl)ccc1OCC(=O)O 0.002

Continue with CS(=O)(=O)c1ccc(Cl)c(C#Cc2cc(Cl)ccc2OCC(=O)O)c1 0.007

Continue with Cc1ccc(S(=O)(=O)N(C)C)cc1C#Cc1cc(Cl)ccc1OCC(=O)O 0.004
